Tested on: NK-92 (IL-2 2.5 ng/mL)
protocol_notes: relative IC50 (inflection point of fitted viability curve, relative to fitted max inhibition); higher = less sensitive
stated_conditions: 72 h
value_type: relative IC50 (nM)
Give bare numbers, in nM.

Hi there! I need relative IC50 for each item below, if you can.
1. COc1ccc(S(=O)(=O)Nc2cccnc2Nc2ccc(O)cc2)cc1
2. CN(C)Cc1ccc(S(=O)(=O)n2ccc(/C=C/C(=O)NO)c2)cc1
3. CC(=O)[C@]1(O)Cc2c(O)c3c(c(O)c2[C@@H](O[C@H]2C[C@H](N)[C@H](O)[C@H](C)O2)C1)C(=O)c1ccccc1C3=O
4. O=C(O)c1ccc2c(c1)nc(Nc1cccc(Cl)c1)c1ccncc12
5. Nc1nc(NC2CC2)cc(-c2cccc(Cl)c2Cl)n1
6. COc1ccc(-c2nc(N3CCOCC3)c3sc(CN(C)c4ncc(C(=O)NO)cn4)cc3n2)cn1
7. CCC1=C[C@@H]2CN(C1)Cc1c([nH]c3ccccc13)[C@@](C(=O)OC)(c1cc3c(cc1OC)N(C)[C@H]1[C@@](O)(C(=O)OC)[C@H](OC(C)=O)[C@]4(CC)C=CCN5CC[C@]31[C@@H]54)C2

122
629
5.78
3900
1550
2.64
23.2

* * *

Tested on: normal primary NK cells, pool 1 (3 donors), resting (IL-2 0 ng/mL);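 also: normalised to DMSO-only wells as negative and benzethonium chloride as positive control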
protocol_notes: percent inhibition of viability; higher = more inhibition
stated_conditions: 72 h; 1000 nM
value_type: percent inhibition of viability (%)
One number for each entry, in %.

[[record]]
compound = "C[C@]12C=CC(=O)C=C1CC[C@@H]1[C@@H]2C(=O)C[C@@]2(C)[C@H]1CC[C@]2(O)C(=O)CO [Prednisone] (max concentration tested 10000 nM)"
value_type = "percent inhibition of viability"
unit_annotation = "%"
value_observed = -4.28

[[record]]
compound = "Nc1cc(F)ccc1NC(=O)/C=C/c1cnn(C/C=C/c2ccccc2)c1 [RGFP966] (max concentration tested 10000 nM)"
value_type = "percent inhibition of viability"
unit_annotation = "%"
value_observed = -2.37


We next turn to a different compound, shown below.
Determine from records and report percent inhibition of viability for O=NN(CCCl)C(=O)NC1CCCCC1 [Lomustine] (max concentration tested 10000 nM)
13.4

* * *

System: IMC-1 (IL-2 20 ng/mL)
protocol_notes: drug sensitivity score (DSS) (DSS units); higher = more sensitive; extreme values may be limits of the assay
stated_conditions: 72 h
Please respond with reported drug sensitivity score for every item in the list.
Give bare numbers.

Known results for compounds:
[[record]]
compound = "S=C(NCc1ccc2c(c1)OCO2)N1CCN(c2ncnc3c2oc2ccccc23)CC1 [Amuvatinib] (max concentration tested 10000 nM)"
study_system = "IMC-1 (IL-2 20 ng/mL)"
value_observed = 7.59

[[record]]
compound = "CN(C[C@@H]1COCCO1)S(=O)(=O)Nc1ccc2ccc3ncc(-c4cnn(C)c4)cc3c(=O)c2c1 [MK-2461] (max concentration tested 10000 nM)"
study_system = "IMC-1 (IL-2 20 ng/mL)"
value_observed = 0

[[record]]
compound = "C[C@]12CC[C@H](O)CC1=CC[C@@H]1[C@@H]2CC[C@]2(C)C(c3cccnc3)=CC[C@@H]12 [Abiraterone] (max concentration tested 5000 nM)"
study_system = "IMC-1 (IL-2 20 ng/mL)"
value_observed = 1.72

[[record]]
compound = "CNNCc1ccc(C(=O)NC(C)C)cc1 [Procarbazine] (max concentration tested 10000 nM)"
study_system = "IMC-1 (IL-2 20 ng/mL)"
value_observed = 0

[[record]]
compound = "Cc1cc(OCc2nnc(SC3CCCC3)n2-c2cccnc2)ccc1-c1ccc(S(C)(=O)=O)cc1 [NMS-873] (max concentration tested 10000 nM)"
study_system = "IMC-1 (IL-2 20 ng/mL)"
value_observed = 26.4


For each of the compounds below, state drug sensitivity score.
1. Cc1nc(C(=O)NCC(=O)O)c(O)c2ccc(Oc3ccccc3)cc12 [FG-4592] (max concentration tested 10000 nM)
2. C/C(=C\c1csc(C)n1)[C@@H]1C[C@@H]2O[C@]2(C)CCC[C@H](C)[C@H](O)[C@@H](C)C(=O)C(C)(C)[C@@H](O)CC(=O)N1 [Ixabepilone] (max concentration tested 1000 nM)
3. CC(C)(C#N)c1cc(Cn2cncn2)cc(C(C)(C)C#N)c1 [Anastrozole] (max concentration tested 10000 nM)
4. N[C@@H]1CCCN(c2c(/C=C3\SC(=O)NC3=O)cccc2-c2ccccc2)C1 [AZD1208] (max concentration tested 10000 nM)
5. CCNC(=O)Nc1ccc(-c2nc3c(c(N4CCOC[C@@H]4C)n2)CCN(C2COC2)C3)cc1 [RG-7603] (max concentration tested 2500 nM)

0.7
4.92
0
0
0.89
